The origin of these recorded values is PubChem BioAssay AID1159580.

- method.description: chemical genetic growth profiling, strain panel (AID 1159580);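 also: tested at 20 µM; growth read once vehicle control cultures reached saturation at 30 °C; 1 = growth at the plate median or of vehicle wells; lower values mean less growth of the strain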
- condition.info: S. cerevisiae deletion strains, growth OD, locus YIL125W, strain kgd1, hits give low values
In all, about 5,500 compounds went through this assay and about 2,000 (36%) were called active. Inconclusive results (about 18%) are left out. The list shows a part of the results.

molecule	normalized growth
CC(C)=CCCC1(C)C=Cc2c(O)c3c(c(CC=C(C)C)c2O1)OC12C(=CC4CC1C(C)(C)OC2(C/C=C(/C)C(=O)O)C4O)C3=O (centres undefined)	0.936
O=C(COc1ccc(Cl)cc1)N1CCN(Cc2ccc3c(c2)OCO3)CC1	1
CNCc1ccccc1	1
O=C1C(O)=C(O)C(=O)C(O)=C1O	0.967

* * *

Measured normalized growth by item
- method.description: chemical genetic growth profiling, strain panel (AID 1159580);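 also: tested at 20 µM; growth read once vehicle control cultures reached saturation at 30 °C; 1 = growth at the plate median or of vehicle wells; lower values mean less growth of the strain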
- condition.info: S. cerevisiae deletion strains, growth OD, locus YDL035C, strain GPR1, hits give low values
Out of some 5,500 compounds screened, about 2,000 (36%) were called active. Roughly 18% stayed inconclusive and do not appear here. The list shows a part of the results. Where a SMILES comes first, the peptide text is derived from it. Bridges are numbered along the chain shown (N, C = ends). [ ]: non-standard residue; d: D form. The star is where a group is joined. ξ: configuration not given here. ξDab(CH2SO3H) = NC(CCNCS(=O)(=O)O)C(=O)O; Heptanoyl(6-Me) = CC(C)CCCCC(=O)*; Dab = NCC[CH](N)C(=O)O
property: normalized growth

molecule	endpoint.result
Nc1ccc(S(=O)(=O)Nc2ccnn2-c2ccccc2)cc1	0.999
CCC(C)C1NC(=O)C(CCNCS(=O)(=O)O)NC(=O)C(NC(=O)C(CCNCS(=O)(=O)O)NC(=O)C(NC(=O)C(CCNCS(=O)(=O)O)NC(=O)CCCCC(C)C)C(C)O)CCNC(=O)C(C(C)O)NC(=O)C(CCNCS(=O)(=O)O)NC(=O)C(CCNCS(=O)(=O)O)NC(=O)C(C(C)CC)NC1=O (centres undefined) ({Heptanoyl(6-Me)}-[ξDab(CH2SO3H)]T[ξDab(CH2SO3H)][Dab][ξDab(CH2SO3H)]II[ξDab(CH2SO3H)][ξDab(CH2SO3H)]T; lactam 4-C; configuration not given here)	0.989
Nc1c2c(nc3ccccc13)CCCC2O (centres undefined)	0.994
COc1ccc2c(c1)c(CC(=O)OCC(=O)O)c(C)n2C(=O)c1ccc(Cl)cc1	1.02
C[C@]12CCC(=O)C=C1CCC1C2[C@@H](O)C[C@@]2(C)C1CC[C@]2(O)C(=O)CO (some centres undefined)	1.02
Nc1ccc(S(=O)(=O)Nc2cnc3ccccc3n2)cc1	1
Cc1ccc(-c2cc(C(F)(F)F)nn2-c2ccc(S(N)(=O)=O)cc2)cc1	0.979
CNC(=O)O/N=C\C(C)(C)SC	1.02
Cc1cc(O)c2c(c1)Cc1cccc(O)c1C2=O	0.978
Nc1c2c(nc3ccccc13)CCCC2	1.01
C/C=C(/C)C(=O)O[C@H]1CC[C@@]2(C)[C@@H]3CC[C@H]4[C@]5(O)C[C@H](O)[C@@]6(O)[C@@H](CN7C[C@@H](C)CC[C@H]7[C@@]6(C)O)[C@]5(O)C[C@@]42O[C@]13O	0.991
NC(Cc1c[nH]c2ccccc12)C(=O)O (centres undefined)	1
O=C1C(O)=C(O)C(=O)C(O)=C1O	1
COC(=O)/C(C)=C\CC12OC(C)(C)C3CC(C=C4C(=O)c5c(O)c6c(c(CCC(C)(C)Cl)c5OC431)OC1(C)CCC(=C(C)C)C6C1)C2=O (centres undefined)	1.01
C#C[C@]1(O)CCC2C3CCC4=CC(=O)CC[C@@H]4C3CC[C@@]21C (some centres undefined)	0.98
COc1cc(C(=O)O[C@H]2CC[C@@]3(C)[C@@H]4CC[C@H]5[C@]6(O)C[C@H](O)[C@@]7(O)[C@@H](CN8C[C@@H](C)CC[C@H]8[C@@]7(C)O)[C@]6(O)C[C@@]53O[C@]24O)cc(OC)c1OC	1
CC(C)(C#N)O[C@@H]1O[C@H](CO)[C@@H](O)[C@H](O)[C@H]1O	1.02
CNCc1ccccc1	1
Cc1cn([C@H]2C[C@H](N=[N+]=[N-])[C@@H](CO)O2)c(=O)[nH]c1=O	1.01
